Cited source: patent US9546157B2

testedTarget: GHSR1a (Homo sapiens, UniProt Q92847)
Sequence (Q92847 whole entry): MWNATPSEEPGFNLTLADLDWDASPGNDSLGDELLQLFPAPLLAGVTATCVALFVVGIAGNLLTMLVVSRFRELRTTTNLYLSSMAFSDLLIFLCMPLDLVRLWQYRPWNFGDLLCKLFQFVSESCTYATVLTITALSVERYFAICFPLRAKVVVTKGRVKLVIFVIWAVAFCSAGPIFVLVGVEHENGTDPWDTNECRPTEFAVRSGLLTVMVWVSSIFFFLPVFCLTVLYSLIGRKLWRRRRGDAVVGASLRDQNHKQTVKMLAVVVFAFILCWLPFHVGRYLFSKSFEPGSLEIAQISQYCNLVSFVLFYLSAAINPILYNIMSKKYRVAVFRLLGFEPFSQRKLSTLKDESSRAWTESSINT
testSummary: Calcium FLIPR assay, GHSR-1a antagonism (reduction of ghrelin response)
details: HEK293/GHSR1a cells, ghrelin 10 nM
Values of IC50 strictly less than 700 nM map to criterion met, and values of at least 700 nM map to criterion not met.

molecule="COc1cc(OC)cc(-c2ccc(C(C)NC(=O)N(C)C3CCN(C)CC3)c(Cl)c2Cl)c1 (centres unmarked)" labelclass="criterion not met"

Incoming: Quick check: does CC(NC(=O)N(C)C1CCN(C)CC1)c1ccc(-c2cncc(CCl)n2)c(Cl)c1Cl (centres unmarked) have IC50 under 700 nM?
Outgoing: criterion not met

Incoming: And then CC(NC(=O)N(C)C1CCN(C)CC1)c1ccc(C#C[Si](C)(C)C)c(Cl)c1Cl (centres unmarked) , what is it?
Outgoing: criterion met

Incoming: And then CC(NC(=O)N(C)C1CCN(C)CC1)c1ccc(-c2ccc(C(N)=O)cc2)c(Cl)c1Cl (centres unmarked) , what is it?
Outgoing: criterion met

----------
testedTarget: GHSR1a (Homo sapiens, UniProt Q92847)
Construct: expressed in transfected cells; host or cells: HEK293
testSummary: Calcium FLIPR assay, GHSR-1a antagonism (reduction of ghrelin response)
Type: cell-based
details: HEK293/GHSR1a cells, ghrelin 10 nM
Record form. Attribute: IC50. Fill in for each entry.
Give bare numbers, in nM.

compound="CC(NC(=O)N(C)C1CCN(C)CC1)c1ccc(C#Cc2ccccn2)c(Cl)c1Cl (stereo not shown) [Compound H0734]" resultunits=nM experimentalvalue=202
compound="CC(NC(=O)N(C)C1CCN(C)CC1)c1ccc(C#CCN2CCN(C)CC2)c(Cl)c1Cl (stereo not shown) [Compound H0812]" resultunits=nM experimentalvalue=1200
compound="CC(NC(=O)N(C)C1CCN(C)CC1)c1ccc(-c2ccc(C(F)F)s2)c(Cl)c1Cl (stereo not shown) [Compound H0654]" resultunits=nM experimentalvalue=6

Now for another entry.
Incoming: Query IC50 on GHSR1a (Homo sapiens, UniProt Q92847) for COC(=O)c1cncc(-c2ccc(C(C)NC(=O)N(C)C3CCN(C)CC3)c(Cl)c2Cl)n1 (stereo not shown) [Compound H0789]
Outgoing: 284
